Assay: APR_HepG2_StressKinase_24hr: Apredica 24-hour HepG2 Assay for Stress Kinase (AID 2282922)
Details: HepG2 stress kinase (phospho-c-Jun) imaging, actives raise or lower the signal
Calls of active or inactive are those of the source. The calls were made as follows: active = hit-call score of the fitted dose curve at least 0.9, where 1 is the maximum; inactive = score below 0.9.
Respond using exactly one of the listed classes: Yes = active, No = inactive

Solved entries (count: 4):
CN(C)c1ccc(Cc2ccc(N(C)C)cc2)cc1: No
C[C@](N)(Cc1ccc(O)c(O)c1)C(=O)O: No
Cn1c(=O)cc(Oc2ccc(F)cc2F)c2cnc(NCC(C)(C)O)nc21: No
CC(C)=CCCC(C)CCO (stereo not given): No

[in] How did this test come out for Cc1ccc(O)cc1 ?
[out] No

[in] How did this test come out for CCCC(=O)OCC ?
[out] No
